- system.tested: Y2 receptors (Homo sapiens)
- Construct: endogenous in cells; host or cells: KAN-Ts cells (membranes)
- Sequence (P49146 1-381): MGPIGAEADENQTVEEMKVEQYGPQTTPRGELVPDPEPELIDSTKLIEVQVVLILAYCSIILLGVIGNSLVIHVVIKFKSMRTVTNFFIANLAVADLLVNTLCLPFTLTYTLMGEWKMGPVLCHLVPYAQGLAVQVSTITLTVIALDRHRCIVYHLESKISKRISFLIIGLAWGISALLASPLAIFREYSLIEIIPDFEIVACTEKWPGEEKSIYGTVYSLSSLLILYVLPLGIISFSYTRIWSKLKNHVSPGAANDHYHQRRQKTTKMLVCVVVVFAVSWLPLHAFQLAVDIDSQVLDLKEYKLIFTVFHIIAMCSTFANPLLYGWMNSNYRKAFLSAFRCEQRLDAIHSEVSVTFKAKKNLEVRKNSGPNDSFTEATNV
- experimental.protocol: Radioligand binding assay ([125I]PYY, KAN-Ts cell membranes)
- run.conditions: Table 1, [125I]PYY 80 pM, average of results, read-out: IC50
pIC50: −log10 of the molar value.
Listed here are compounds together with their documented pIC50.
measured.property: pIC50

compound	recorded.number
COC(=O)C(c1ccccc1)N1CCN(c2ccc(NC(=O)c3cncnc3)cc2)CC1 (centres unmarked)	4.59
CCNC(=O)C(c1ccccc1)C1CCN(c2ccc(NC(=O)Nc3c(C)noc3C)cc2F)CC1 (centres unmarked)	7.82
CCNC(=O)C(c1ccccc1)N1CCN(c2ccc(NC(=O)CCc3ccccc3)cc2F)CC1 (centres unmarked)	5.01
COC(=O)C(c1ccccc1)N1CCN(c2ccc(NC(=O)c3ccccc3C)cc2)CC1 (centres unmarked)	5.74
CCNC(=O)C(c1ccccc1)C1CCN(c2ccc(NC(=O)NCc3ccc(F)cc3)cc2F)CC1 (centres unmarked)	6.00
CCC(CC)C(=O)Nc1ccc(N2CCN(Cc3cccc(C(=O)N4CCOCC4)c3)CC2)c(F)c1	6.25
CCNC(=O)C(c1ccccc1)C1CCN(c2ccc(NC(=O)Nc3c(C)cccc3C)cc2F)CC1 (centres unmarked)	6.79
CCC(CC)C(=O)Nc1ccc(N2CCN(C(C(=O)N(CC)CC)c3cc(F)ccc3Br)CC2)c(F)c1 (centres unmarked)	6.85

====

- system.tested: Y2 receptors (Homo sapiens, UniProt P49146)
- Construct: endogenous in cells; host or cells: KAN-Ts cells (membranes)
- experimental.protocol: Radioligand binding assay ([125I]PYY, KAN-Ts cell membranes)
- run.conditions: Table 1, [125I]PYY 80 pM, average of results, read-out: IC50
The label t is reserved for IC50 strictly under 200 nM; f covers values equal to or above it.

molecule	system.tested	class.assignment
CCNC(=O)C(c1ccccc1)C1CCN(c2ccc(NC(=O)[C@H]3CCOC3)cc2C#N)CC1 (some centres unmarked) [Example 133]	Y2 receptors (Homo sapiens, UniProt P49146)	t
CCc1ccccc1C(=O)Nc1ccc(N2CCN(C(C(=O)OC)c3ccccc3)CC2)cc1 (centres unmarked) [Example 51]	Y2 receptors (Homo sapiens, UniProt P49146)	f
CCN(CC)C(=O)C(c1ccccc1)C1CCN(c2ccc(NC(=O)Cc3cc(C)ccc3C)cc2F)CC1 (centres unmarked) [Example 154]	Y2 receptors (Homo sapiens, UniProt P49146)	f
CCN(CC)C(=O)C(c1ccccc1)N1CCN(c2ccc(C(=O)NCc3c(C)noc3C)cc2F)CC1 (centres unmarked) [Example 31]	Y2 receptors (Homo sapiens, UniProt P49146)	t
COC(=O)C(c1ccccc1)N1CCN(c2ccc(NC(=O)c3cccc(C)c3)cc2)CC1 (centres unmarked) [Example 72]	Y2 receptors (Homo sapiens, UniProt P49146)	f
CCNC(=O)C(c1ccccc1)N1CCN(c2ccc(NC(=O)C(CC3CCCCN3)C(F)(F)F)cc2F)CC1 (centres unmarked) [Example 94]	Y2 receptors (Homo sapiens, UniProt P49146)	f
CCN(CC)C(=O)C(c1ccccc1)C1CCN(c2ccc(NC(=O)c3cccn3C)cc2F)CC1 (centres unmarked) [Example 145]	Y2 receptors (Homo sapiens, UniProt P49146)	t
CCC(CC)C(=O)Nc1cc(F)c(N2CCN(C(C(=O)OC)c3ccccc3)CC2)c(F)c1 (centres unmarked) [Example 40]	Y2 receptors (Homo sapiens, UniProt P49146)	t

Data origin: patent US8183239B2
